Biological target: Tb-labeled inactive PDGFRβ (Homo sapiens (Human), UniProt P09619)
Sequence (P09619 33-1106): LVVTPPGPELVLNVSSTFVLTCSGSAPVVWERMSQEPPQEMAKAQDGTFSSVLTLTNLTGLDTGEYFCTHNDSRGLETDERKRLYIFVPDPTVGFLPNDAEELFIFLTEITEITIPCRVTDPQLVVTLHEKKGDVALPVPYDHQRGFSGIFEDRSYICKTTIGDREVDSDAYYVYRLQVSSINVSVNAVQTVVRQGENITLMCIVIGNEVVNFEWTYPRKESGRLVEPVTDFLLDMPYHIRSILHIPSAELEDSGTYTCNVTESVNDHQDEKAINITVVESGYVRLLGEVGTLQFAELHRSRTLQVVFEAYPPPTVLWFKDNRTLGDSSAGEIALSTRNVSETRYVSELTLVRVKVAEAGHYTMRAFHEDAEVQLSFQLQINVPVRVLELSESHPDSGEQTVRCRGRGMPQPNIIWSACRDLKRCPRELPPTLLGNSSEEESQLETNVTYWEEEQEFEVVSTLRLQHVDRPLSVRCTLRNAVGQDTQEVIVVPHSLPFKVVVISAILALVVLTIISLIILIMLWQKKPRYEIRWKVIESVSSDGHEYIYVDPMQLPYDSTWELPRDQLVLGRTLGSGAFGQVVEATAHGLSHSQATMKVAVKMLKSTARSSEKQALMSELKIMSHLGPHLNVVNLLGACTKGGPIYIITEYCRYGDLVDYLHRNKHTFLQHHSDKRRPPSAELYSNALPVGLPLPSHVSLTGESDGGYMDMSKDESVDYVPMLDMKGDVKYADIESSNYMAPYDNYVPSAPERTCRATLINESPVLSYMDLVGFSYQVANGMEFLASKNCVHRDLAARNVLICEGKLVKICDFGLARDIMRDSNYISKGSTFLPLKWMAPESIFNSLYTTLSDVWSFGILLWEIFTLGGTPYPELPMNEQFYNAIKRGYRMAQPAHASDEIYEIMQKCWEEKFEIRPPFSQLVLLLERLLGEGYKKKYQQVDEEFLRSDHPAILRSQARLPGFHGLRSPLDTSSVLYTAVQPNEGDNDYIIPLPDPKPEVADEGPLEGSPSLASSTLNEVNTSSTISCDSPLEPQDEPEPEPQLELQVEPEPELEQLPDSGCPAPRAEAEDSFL
Experiment: PDGFRβ LanthaScreen Assay
Details: read-out: PDGFR Lantha IC50
measurementKind: pIC50
Keep it numeric: pIC50 is minus log10 of the concentration in mol/L.

As a guide, the following entries are already answered.
Cc1ncc(NC(=O)C2CN(C(C)C)C2)cc1NC(=O)c1cnn2cc(-c3cnn4c3OCCC4)sc12 :: 8.40
COCCn1cc(-c2cn3ncc(C(=O)Nc4cc(NC(=O)CN5CCCC6(CC6)C5)cnc4C)c3s2)cn1 :: 8.52
Cc1ncc(NC(=O)CN2CCOCC2)cc1NC(=O)c1cnn2cc(-c3cnn(C)c3)sc12 :: 7.39

// lookup pIC50 for Cc1ncc(NC(=O)CNC2CCCC2)cc1NC(=O)c1cnn2cc(-c3cnn4c3CCC4)sc12
8.96

// lookup pIC50 for Cc1ncc(C(=O)NCCN2CCC3(CC3)C2)cc1NC(=O)c1cnn2cc(-c3cnn(C)c3)sc12
8.15

// lookup pIC50 for Cc1ncc(NC(=O)CN2CC(C)(C)C2)cc1NC(=O)c1cnn2cc(-c3nn(C)nc3C)sc12
8.68

// lookup pIC50 for COCC1CCCN1CC(=O)Nc1cnc(C)c(NC(=O)c2cnn3cc(-c4cnn(C)c4)sc23)c1 (stereo not shown)
7.96

* * *

Molecular target: VEGFR2, unphosphorylated (Homo sapiens (Human), UniProt P35968)
Sequence (P35968 20-1356): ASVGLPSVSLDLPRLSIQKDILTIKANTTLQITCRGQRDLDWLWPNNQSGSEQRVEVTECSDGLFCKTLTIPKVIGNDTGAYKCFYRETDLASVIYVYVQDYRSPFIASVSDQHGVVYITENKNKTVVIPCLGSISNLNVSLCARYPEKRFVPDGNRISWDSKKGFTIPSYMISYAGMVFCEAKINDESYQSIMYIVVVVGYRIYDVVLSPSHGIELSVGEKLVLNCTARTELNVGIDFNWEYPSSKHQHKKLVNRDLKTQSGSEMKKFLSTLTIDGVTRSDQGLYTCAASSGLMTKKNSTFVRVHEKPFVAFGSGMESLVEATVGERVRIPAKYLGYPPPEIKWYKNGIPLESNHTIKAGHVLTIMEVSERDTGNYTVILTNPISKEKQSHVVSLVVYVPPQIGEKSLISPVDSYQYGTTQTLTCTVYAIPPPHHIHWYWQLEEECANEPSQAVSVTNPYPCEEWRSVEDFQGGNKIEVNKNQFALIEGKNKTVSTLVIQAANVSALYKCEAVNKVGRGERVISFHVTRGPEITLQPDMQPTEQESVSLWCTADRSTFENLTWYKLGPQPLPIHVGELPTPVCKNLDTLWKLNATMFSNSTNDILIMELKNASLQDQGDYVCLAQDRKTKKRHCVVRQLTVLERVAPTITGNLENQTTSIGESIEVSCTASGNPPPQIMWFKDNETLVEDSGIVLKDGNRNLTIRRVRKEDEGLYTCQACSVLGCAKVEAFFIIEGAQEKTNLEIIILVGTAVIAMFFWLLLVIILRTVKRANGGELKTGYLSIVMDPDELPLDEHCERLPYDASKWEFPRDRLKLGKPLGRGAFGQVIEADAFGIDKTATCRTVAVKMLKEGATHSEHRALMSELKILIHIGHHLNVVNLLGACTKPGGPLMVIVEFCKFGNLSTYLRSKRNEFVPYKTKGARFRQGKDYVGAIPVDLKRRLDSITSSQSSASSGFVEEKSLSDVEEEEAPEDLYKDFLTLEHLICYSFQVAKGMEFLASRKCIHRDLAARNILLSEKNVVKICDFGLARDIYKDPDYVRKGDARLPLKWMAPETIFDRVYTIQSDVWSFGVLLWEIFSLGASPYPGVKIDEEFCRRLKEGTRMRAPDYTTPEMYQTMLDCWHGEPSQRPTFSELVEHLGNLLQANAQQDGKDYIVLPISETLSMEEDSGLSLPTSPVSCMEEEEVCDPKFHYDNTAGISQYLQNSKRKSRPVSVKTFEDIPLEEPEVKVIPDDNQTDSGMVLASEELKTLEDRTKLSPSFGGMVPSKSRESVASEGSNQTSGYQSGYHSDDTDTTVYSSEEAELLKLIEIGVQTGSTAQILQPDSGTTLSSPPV
Experiment: VEGFR ADP GLO Assay
pIC50: −log10 of the molar value.
measurementKind: pIC50

As a guide, the following entries are already answered.
Cc1ncc(NC(=O)CN2Cc3ccncc3C2)cc1NC(=O)c1cnn2cc(-c3cnn(C)c3)sc12 :: < 5.12
Cc1ncc(C(=O)NCCN2CC(F)(F)C2)cc1NC(=O)c1cnn2cc(-c3ccncc3)sc12 :: < 5.12
Cc1ncc(C(=O)NCCN2CCCC2)cc1NC(=O)c1cnn2cc(-c3cnn(C)c3)sc12 :: < 5.12

--- query ---
// lookup pIC50 for Cc1cc(C(=O)NCCCN2CCCC2(C)C)sc1NC(=O)c1cnn2cc(-c3cnn(C)c3)sc12
< 5.12

* * *

Measured pIC50 on His6-TEV-PDGFRβ (557-1016) (Homo sapiens (Human)) follows.
Sequence (P09619 557-1016): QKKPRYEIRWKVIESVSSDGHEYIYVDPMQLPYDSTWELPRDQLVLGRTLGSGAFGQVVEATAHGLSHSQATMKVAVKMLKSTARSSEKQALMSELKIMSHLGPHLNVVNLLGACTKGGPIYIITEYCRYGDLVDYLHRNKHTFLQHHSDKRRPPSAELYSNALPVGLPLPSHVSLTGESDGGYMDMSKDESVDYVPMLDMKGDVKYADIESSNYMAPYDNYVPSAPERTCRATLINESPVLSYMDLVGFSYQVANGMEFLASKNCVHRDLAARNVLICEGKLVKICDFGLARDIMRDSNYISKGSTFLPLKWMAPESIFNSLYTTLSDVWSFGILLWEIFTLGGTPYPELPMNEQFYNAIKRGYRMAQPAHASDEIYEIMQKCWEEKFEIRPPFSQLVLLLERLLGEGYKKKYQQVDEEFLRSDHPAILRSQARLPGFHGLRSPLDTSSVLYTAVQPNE
Keep it numeric: pIC50 is minus log10 of the concentration in mol/L.

As a guide, the following entries are already answered.
COCCn1cc(-c2cn3ncc(C(=O)Nc4cc(NC(=O)CN5CCC[C@@H]5C)cnc4C)c3s2)cn1 :: 9.10
COCCn1cc(-c2cn3ncc(C(=O)Nc4cc(C(=O)NCCN5CCC(F)(F)CC5)cnc4C)c3s2)cn1 :: 9.22
Cc1ncc(NC(=O)CN2CCc3ncccc3C2)cc1NC(=O)c1cnn2cc(-c3cnn(C)c3)sc12 :: 8.54

--- query ---
// lookup pIC50 for Cc1ncc(NC(=O)CN2CC(C)(C)C2)cc1NC(=O)c1cnn2cc(-c3ccc(C4(O)COC4)cc3)sc12
9.70

* * *

Item-by-item account of pIC50
Molecular target: Tb-labeled inactive PDGFRβ (Homo sapiens (Human))
Test: PDGFRβ LanthaScreen Assay
Details: read-out: PDGFR Lantha IC50
Keep it numeric: pIC50 is minus log10 of the concentration in mol/L.

As a guide, the following entries are already answered.
Cc1cc(C(=O)NCCN2CCC(C)(C)CC2)sc1NC(=O)c1cnn2cc(-c3cnn(C)c3)sc12 :: 6.19
Cc1ncc(NC(=O)CN2CCOCC23CC3)cc1NC(=O)c1cnn2cc(-c3cnn(C)c3)sc12 :: 7.78
Cc1ncc(NC(=O)CN2CC(C)(C)C2)cc1NC(=O)c1cnn2cc(-c3cnc4[nH]ncc4c3)sc12 :: 7.94
COCCn1cc(-c2cn3ncc(C(=O)Nc4cc(NC(=O)CN5CCC56CCC6)cnc4C)c3s2)cn1 :: 8.51
Cc1ncc(C(=O)NCCN2CCCC23CCC3)cc1NC(=O)c1cnn2cc(-c3c(C)nn(C)c3C)sc12 :: 8.74

// lookup pIC50 for COc1ncccc1-c1cn2ncc(C(=O)Nc3cc(C(=O)NCCN4CCCC4(C)C)cnc3C)c2s1
8.89

// lookup pIC50 for Cc1ncc(NC(=O)CN2CCC3(CCO3)CC2)cc1NC(=O)c1cnn2cc(-c3cnn(C)c3)sc12
7.11

* * *

Molecular target: Tb-labeled inactive PDGFRβ (Homo sapiens (Human))
Test: PDGFRβ LanthaScreen Assay
Conditions: read-out: PDGFR Lantha IC50
measurementKind: pIC50
Keep it numeric: pIC50 is minus log10 of the concentration in mol/L.

As a guide, the following entries are already answered.
Cc1ncc(NC(=O)OC2CN(C(C)(C)C)C2)cc1NC(=O)c1cnn2cc(-c3cnn(C)c3)sc12 [Example 252] :: 7.27
Cc1cc(C(=O)NCCN2[C@H](C)CCC[C@@H]2C)sc1NC(=O)c1cnn2cc(-c3cnn(C)c3)sc12 [Example 198] :: 6.96
Cc1ncc(NC(=O)CN2CC(C)(C)C2)cc1NC(=O)c1cnn2cc(-c3cnn4c3CCC4)sc12 [Example 409] :: 8.89
COCCn1cc(-c2cn3ncc(C(=O)Nc4cc(NC(=O)[C@H]5CCCN5C(C)C)cnc4C)c3s2)cn1 [Example 344] :: 7.17
Cc1ncc(C(=O)NCCN2CC(C)(C)C2)cc1NC(=O)c1cnn2cc(-c3cnn4c3OCCC4)sc12 [Example 479] :: 8.70
Cc1ncc(C(=O)NCCN2C[C@H]3CC[C@@H]2C3)cc1NC(=O)c1cnn2cc(-c3cnn(C)c3C)sc12 [Example 208] :: 8.37
Cc1ncc(NC(=O)CN2CC(C)(C)C2)cc1NC(=O)c1cnn2cc(-c3cnn(CC4CC4)c3)sc12 [Example 270] :: 8.27
Cc1ncc(NC(=O)C2CCN(C(C)C)C2)cc1NC(=O)c1cnn2cc(-c3cnn4c3OCCC4)sc12 (stereo not drawn) [Example 350] :: 8.39
Cc1ncc(NC(=O)NCCC2CCN(C)CC2)cc1NC(=O)c1cnn2cc(-c3cnn(C)c3)sc12 [Example 108] :: 6.31
Cc1ncc(NC(=O)CN2CCCC23CCC3)cc1NC(=O)c1cnn2cc(-c3cnn4c3COCC4)sc12 [Example 417] :: 8.55

// lookup pIC50 for Cc1ncc(C(=O)NCCN2CC3CCC2CC3)cc1NC(=O)c1cnn2cc(-c3cnn(C)c3C)sc12 [Example 171]
8.59

// lookup pIC50 for Cc1ncc(NC(=O)CCN2CCC3(CC2)CC3)cc1NC(=O)c1cnn2cc(-c3cnn(C)c3)sc12 [Example 97]
8.19

// lookup pIC50 for Cc1ncc(NC(=O)CCCN2CCC[C@@H]2C)cc1NC(=O)c1cnn2cc(-c3cnn(C)c3)sc12 [Example 106]
7.17

// lookup pIC50 for COCCn1cc(-c2cn3ncc(C(=O)Nc4cc(NC(=O)C5CCN(C(C)C)C5)cnc4C)c3s2)cn1 (stereo not drawn) [Example 345]
7.24

* * *

Target: Tb-labeled inactive PDGFRβ (Homo sapiens (Human), UniProt P09619)
Experiment: PDGFRβ LanthaScreen Assay
Settings: read-out: PDGFR Lantha IC50
measurementKind: log10(IC50) (log10 of the value in nM)
Base-10 log of IC50, unit nM.

As a guide, the following entries are already answered.
Cc1ncc(NC(=O)CN2CC(C)(C)C2)cc1NC(=O)c1cnn2cc(-c3cnn(CCO)c3)sc12 [Example 290] :: 0.52
Cc1ncc(NC(=O)CN2CCOCC2(C)C)cc1NC(=O)c1cnn2cc(-c3cnn(C)c3)sc12 [Example 68] :: 0.91
COc1ncccc1-c1cn2ncc(C(=O)Nc3cc(NC(=O)CN4CC(C)(C)C4)cnc3C)c2s1 [Example 369] :: 0.15
Cc1ncc(NC(=O)CN2CCCCC23COC3)cc1NC(=O)c1cnn2cc(-c3cnn(C)c3)sc12 [Example 25] :: 0.82
Cc1ncc(NC(=O)CCN2CCCC2(C)C)cc1NC(=O)c1cnn2cc(-c3ccnn3C)sc12 [Example 11] :: 0.70
Cc1ncc(NC(=O)CC23CCCN2CCC3)cc1NC(=O)c1cnn2cc(-c3cnn(C)c3)sc12 [Example 302] :: 1.79

Lab request: please report log10(IC50) under test system Tb-labeled inactive PDGFRβ (Homo sapiens (Human), UniProt P09619) for Cc1ncc(NC(=O)[C@H]2CCCN2C(C)C)cc1NC(=O)c1cnn2cc(-c3cnn4c3OCCC4)sc12 [Example 347]
0.78

* * *

Target: Tb-labeled inactive PDGFRβ (Homo sapiens (Human), UniProt P09619)
Experiment: PDGFRβ LanthaScreen Assay
Conditions: read-out: PDGFR Lantha IC50
measurementKind: IC50

Cc1ncc(NC(=O)CN2C[C@H](C)O[C@@H](C)C2)cc1NC(=O)c1cnn2cc(-c3cnn(C4CC4)c3)sc12 (relative stereo) :: 5.3 nM
Cc1ncc(C(=O)NCCN2CC(C)(C)C2)cc1NC(=O)c1cnn2cc(-c3cnn4c3CCC4)sc12 :: 1.6 nM
COC1CN(CC(=O)Nc2cnc(C)c(NC(=O)c3cnn4cc(-c5cn(C)nc5C)sc34)c2)C1 :: 19.7 nM
Cc1cc(C(=O)NCCN2CCCC2(C)C)sc1NC(=O)c1cnn2cc(-c3cnn(C)n3)sc12 :: 2250 nM
Cc1ncc(NC(=O)C2CCCCN2C(C)C)cc1NC(=O)c1cnn2cc(-c3cccnc3O)sc12 (stereo not drawn) :: 64.4 nM
Cc1ncc(NC(=O)OCCN(C)C2CCCCC2)cc1NC(=O)c1cnn2cc(-c3cnn(C)c3)sc12 :: 33.6 nM
Cc1cc(C(=O)NCCN2CCCC2(C)C)sc1NC(=O)c1cnn2cc(-c3cncnc3)sc12 :: > 3000 nM
Cc1ncc(C(=O)NCCN2CCC(F)(F)C2)cc1NC(=O)c1cnn2cc(-c3cnn(C)c3)sc12 :: 4.5 nM

// lookup IC50 for Cc1cc(C(=O)NCCN2CCOCC23CC3)sc1NC(=O)c1cnn2cc(-c3cnn(C)c3)sc12
51 nM
